Every entry's value here was drawn from patent US20060115428A1.

Assay Target: T1, recombinant fibronectin domain ED-B (His)6 (human, UniProt P02751 1266-1356)
T1 construct: domain: ED-B; Produced by standard procedures; immobilised on ELISA plates or on the BIAcore chip; also called recombinant ED-B; human ED-B
Assay Remarks: SPR (BIAcore); ratio to parent clone MOR02619
Protocol: F1-Chips (Biacore, Sweden) were coated with about 200 RU of ED-B (30 μg/ml, 10 mmol of acetate buffer, pH 4.0) and reference flow cells with a corresponding amount of human serum albumin (20 μg/ml, 10 mmol of acetate buffer, pH 4.5) with use of standard EDC-NHS-amine-coupling chemistry. The antigen density was reduced to about 100 RU for the Fab characterization of the second maturation. […] All sensograms were evaluated with use of BIA evaluation software 3.1.
Outcome Measure: x-Fold Improvement Relative to the Parent Clone, Kon (fold)
Write the value in fold as a bare number.

[
  {
    "Binder": "MOR03066 (Fab, V domains shown, Fab, L-CDR3 derivative of MOR02619) VH: QVQLQESGPGLVKPGETLSLTCTVSGGSISSYYWSWIRQAPGKGLEWIGIGHWGSTQYNPSLKGRVTISVDTSKNQFSLKLSSVTAEDTAVYYCARFFDVWGQGTLVTVSS VL: DIVLTQPPSVSGAPGQRVTISCSGSSSNIGSNTVRWYQQLPGTAPKLLIYSNNKRPSGVPDRFSGSKSGTSASLAITGLQSEDEADYYCSSYDTQVTRVFGGGTKLTVLG",
    "Numeric Value": 1.4
  },
  {
    "Binder": "MOR03069 (Fab, V domains shown, Fab, L-CDR3 derivative of MOR02619) VH: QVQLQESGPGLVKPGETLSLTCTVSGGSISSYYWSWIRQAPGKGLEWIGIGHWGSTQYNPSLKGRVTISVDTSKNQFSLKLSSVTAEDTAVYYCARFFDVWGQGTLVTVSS VL: DIVLTQPPSVSGAPGQRVTISCSGSSSNIGSNTVRWYQQLPGTAPKLLIYSNNKRPSGVPDRFSGSKSGTSASLAITGLQSEDEADYYCWTGMSYHFVFGGGTKLTVLG",
    "Numeric Value": 1.5
  },
  {
    "Binder": "MOR03075 (Fab, V domains shown, Fab, L-CDR3 derivative of MOR02619) VH: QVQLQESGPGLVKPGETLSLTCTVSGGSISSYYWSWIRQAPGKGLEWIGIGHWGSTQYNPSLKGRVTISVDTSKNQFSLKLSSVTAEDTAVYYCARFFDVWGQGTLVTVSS VL: DIVLTQPPSVSGAPGQRVTISCSGSSSNIGSNTVRWYQQLPGTAPKLLIYSNNKRPSGVPDRFSGSKSGTSASLAITGLQSEDEADYYCQSWDPRSFTVFGGGTKLTVLG",
    "Numeric Value": 1.4
  },
  {
    "Binder": "MOR03071 (Fab, V domains shown, Fab, L-CDR3 derivative of MOR02619) VH: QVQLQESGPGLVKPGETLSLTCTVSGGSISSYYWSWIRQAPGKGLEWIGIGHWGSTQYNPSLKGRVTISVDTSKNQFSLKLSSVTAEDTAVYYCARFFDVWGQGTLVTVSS VL: DIVLTQPPSVSGAPGQRVTISCSGSSSNIGSNTVRWYQQLPGTAPKLLIYSNNKRPSGVPDRFSGSKSGTSASLAITGLQSEDEADYYCLAYIQSKGHVFGGGTKLTVLG",
    "Numeric Value": 2.3
  }
]

// moving on: another record for x-Fold Improvement Relative to the Parent Clone, Kon
Assign x-Fold Improvement Relative to the Parent Clone, Kon to the following record: MOR03055 (Fab, V domains shown, Fab, L-CDR3 derivative of MOR02619) VH: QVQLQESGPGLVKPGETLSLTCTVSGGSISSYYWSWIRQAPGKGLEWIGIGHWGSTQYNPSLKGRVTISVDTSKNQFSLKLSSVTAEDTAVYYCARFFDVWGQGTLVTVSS VL: DIVLTQPPSVSGAPGQRVTISCSGSSSNIGSNTVRWYQQLPGTAPKLLIYSNNKRPSGVPDRFSGSKSGTSASLAITGLQSEDEADYYCQAWTRAHRYPVFGGGTKLTVLG 2.2
